TARGET SYSTEM: human NaV1.8 (Homo sapiens, UniProt Q9Y5Y9)
Construct: The following NaV1.8 recombinant cell line was used for recordings: HEK-NaV1.8 (NM 006514.1)
Sequence (Q9Y5Y9 whole entry): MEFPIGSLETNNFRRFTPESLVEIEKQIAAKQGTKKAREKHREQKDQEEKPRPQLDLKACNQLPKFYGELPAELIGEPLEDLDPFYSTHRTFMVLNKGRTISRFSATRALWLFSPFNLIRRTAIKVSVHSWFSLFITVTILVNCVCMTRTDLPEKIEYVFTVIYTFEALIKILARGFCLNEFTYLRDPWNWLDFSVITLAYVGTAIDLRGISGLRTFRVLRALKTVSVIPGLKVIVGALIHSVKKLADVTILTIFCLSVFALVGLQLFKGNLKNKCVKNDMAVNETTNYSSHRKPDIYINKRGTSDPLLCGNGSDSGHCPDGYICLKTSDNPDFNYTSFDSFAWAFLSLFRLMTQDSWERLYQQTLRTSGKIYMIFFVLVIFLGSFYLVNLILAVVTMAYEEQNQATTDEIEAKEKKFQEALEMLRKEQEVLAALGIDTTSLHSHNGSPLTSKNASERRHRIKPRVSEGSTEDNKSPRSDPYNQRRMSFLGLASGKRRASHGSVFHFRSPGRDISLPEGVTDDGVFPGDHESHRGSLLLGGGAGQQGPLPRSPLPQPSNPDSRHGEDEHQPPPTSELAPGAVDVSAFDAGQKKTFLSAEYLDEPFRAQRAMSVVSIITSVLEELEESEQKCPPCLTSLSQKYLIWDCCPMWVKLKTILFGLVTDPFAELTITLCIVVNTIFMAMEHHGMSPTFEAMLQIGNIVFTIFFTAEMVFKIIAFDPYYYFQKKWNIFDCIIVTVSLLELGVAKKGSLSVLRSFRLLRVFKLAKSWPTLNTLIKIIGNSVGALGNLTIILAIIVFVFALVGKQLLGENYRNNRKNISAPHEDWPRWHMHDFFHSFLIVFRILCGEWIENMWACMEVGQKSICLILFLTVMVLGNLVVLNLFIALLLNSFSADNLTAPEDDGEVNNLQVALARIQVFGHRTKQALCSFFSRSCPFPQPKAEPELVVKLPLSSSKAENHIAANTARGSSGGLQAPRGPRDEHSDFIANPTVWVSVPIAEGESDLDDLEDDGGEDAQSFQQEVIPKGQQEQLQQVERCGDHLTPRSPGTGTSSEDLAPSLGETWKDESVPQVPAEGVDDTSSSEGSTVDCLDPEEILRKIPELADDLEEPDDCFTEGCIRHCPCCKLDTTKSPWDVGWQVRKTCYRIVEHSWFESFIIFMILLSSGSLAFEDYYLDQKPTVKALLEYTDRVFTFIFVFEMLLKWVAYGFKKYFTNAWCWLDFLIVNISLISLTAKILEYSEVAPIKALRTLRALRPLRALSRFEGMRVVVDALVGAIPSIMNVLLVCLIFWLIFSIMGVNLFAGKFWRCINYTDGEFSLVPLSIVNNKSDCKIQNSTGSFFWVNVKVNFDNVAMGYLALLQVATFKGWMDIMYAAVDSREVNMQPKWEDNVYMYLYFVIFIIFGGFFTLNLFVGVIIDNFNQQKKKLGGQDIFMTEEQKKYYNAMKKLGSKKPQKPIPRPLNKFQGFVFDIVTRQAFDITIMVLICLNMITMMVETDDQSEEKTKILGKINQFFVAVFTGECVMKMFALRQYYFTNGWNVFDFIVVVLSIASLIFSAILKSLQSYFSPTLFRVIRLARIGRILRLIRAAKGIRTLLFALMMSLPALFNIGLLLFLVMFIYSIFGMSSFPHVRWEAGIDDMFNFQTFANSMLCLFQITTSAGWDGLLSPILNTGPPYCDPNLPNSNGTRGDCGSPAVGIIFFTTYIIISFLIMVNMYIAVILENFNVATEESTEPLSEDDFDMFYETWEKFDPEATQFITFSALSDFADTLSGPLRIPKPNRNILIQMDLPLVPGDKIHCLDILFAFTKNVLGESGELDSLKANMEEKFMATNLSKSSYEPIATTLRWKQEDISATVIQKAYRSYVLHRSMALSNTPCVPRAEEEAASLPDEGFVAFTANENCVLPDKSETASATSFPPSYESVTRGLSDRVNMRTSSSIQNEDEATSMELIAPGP
Sequence (Q9NY72 23-215 partner): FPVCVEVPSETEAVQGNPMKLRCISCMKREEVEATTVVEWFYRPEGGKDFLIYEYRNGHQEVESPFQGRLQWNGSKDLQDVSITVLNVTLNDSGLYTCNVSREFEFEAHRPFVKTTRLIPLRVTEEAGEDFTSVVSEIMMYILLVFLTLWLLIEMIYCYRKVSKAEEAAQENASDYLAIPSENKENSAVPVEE
EXPERIMENT SUMMARY: Electrophysiology: automated whole-cell voltage-clamp (patch clamp, Qube384) recordings of sodium currents in HEK-NaV1.8 cells
CONDITION DETAILS: potency data either taken from inactivated or resting state, read-out: Potency category (human NaV1.8 IC50)
pIC50: −log10 of the molar value.
PROPERTY: pIC50

>>> result("NC(=O)c1cc(NC(=O)c2c(C(F)(F)F)c(C3CC3)nn2C[C@@H]2CO[C@H](C(F)(F)F)C2)ccn1 (single isomer, unassigned) [SC-148b]")
"≥ 7.00"
>>> result("Cc1nn(CC2CCC(F)(F)CC2)c(C(=O)Nc2ccnc(C(N)=O)c2F)c1C(F)(F)F")
"5.00 to 6.00"
>>> result("CS(=O)(=O)c1cccc(NC(=O)c2c(C(F)(F)F)cnn2CC2CCC2)c1")
"6.00 to 7.00"
>>> result("Cc1c([C@@H](C)C(F)F)nn(CC2CC(F)(F)C2)c1C(=O)Nc1ccnc(C(N)=O)c1 [SC-192a]")
"6.00 to 7.00"
>>> result("Cc1nn(CC2CCCCC2)c(C(=O)Nc2cccc(S(N)(=O)=O)c2)c1C(F)(F)F")
"≥ 7.00"

Supply recorded pIC50 for Cc1nn(CC2CCC(F)(F)CC2)c(C(=O)Nc2cccc(C(N)=O)n2)c1C(F)(F)F here. 5.00 to 6.00

Supply recorded pIC50 for CS(=O)(=O)c1cccc(NC(=O)c2c(C(F)(F)F)cnn2CC2(O)CCCCC2)c1 here. 5.00 to 6.00
